Source: patent US20140314857A1

- Experiment: Intravenous and intraduodenal (bolus) bioavailability of zanamivir from Capmul MCM L8 25, 50, 75 µL (Example 7)
- Measurement Parameters: male, Sprague-Dawley, rat, in vivo, 1.5 mg/animal, Plasma concentration, intraduodenal bolus, 75 μL Capmul MCM L8; 1.0 hr; rat 965
Observed Property: concentration at 1 hr (ng/mL)
Report the figure in ng/mL without appending any unit label.

Given the entry CC(=O)NC1C(NC(=N)N)C=C(C(=O)O)OC1C(O)C(O)CO (stereo not shown) , report its measured concentration at 1 hr.
929

----------
- Experiment: Intraduodenal bioavailability of zanamivir from glycerol and PBS formulations, enhancer pre-dose (Example 6)
- Measurement Parameters: male, Sprague-Dawley, rat, in vivo, 1.5 mg/animal, Plasma concentration, ID 1.5 mg/animal, 150 µL Glycerol; 1.5 hr; mean
- Procedure: Male Sprague-Dawley rats (Hilltop Labs), 3 animals per treatment group, 250-350 grams in weight, were fitted with a jugular vein cannula (JVC). Animals intended for intraduodenal dosing were also fitted with one or more intraduodenal cannula (IDC) and those intended for intravenous dosing were fitted with a second JVC. […] In this example, the bioavailability of Zanamivir was evaluated after intraduodenal doses in male Sprague-Dawley rats. […] Plasma levels were determined by LC-MS/MS analysis. […]
Observed Property: concentration at 1.5 hr (ng/mL)
Numbers only; they are read as ng/mL.

Look at this compound and give its reported concentration at 1.5 hr. CC(=O)NC1C(NC(=N)N)C=C(C(=O)O)OC1C(O)C(O)CO (stereo not shown)
36.6

----------
- Experiment: Intravenous and intraduodenal (bolus) bioavailability of zanamivir from Capmul MCM L8 25, 50, 75 µL (Example 7)
- Measurement Parameters: male, Sprague-Dawley, rat, in vivo, 1.5 mg/animal, Plasma concentration, ID bolus 1.5 mg/animal, 50 µL Capmul MCM L8, Ex.7; 0.83 hr; mean
Observed Property: concentration at 0.83 hr (ng/mL)
Enter your answer as a number in ng/mL; do not include the unit.

Any idea what its concentration at 0.83 hr is? The compound is CC(=O)NC1C(NC(=N)N)C=C(C(=O)O)OC1C(O)C(O)CO (stereo not shown) [Zanamivir]
2120

----------
- Experiment: Intravenous and intraduodenal (bolus) bioavailability of zanamivir from Capmul MCM L8 25, 50, 75 µL (Example 7)
- Measurement Parameters: male, Sprague-Dawley, rat, in vivo, iv, 1.5 mg/animal, Plasma concentration, IV 1.5 mg/animal, Normal Saline, Ex.7; 0.083 hr; individual rats
Observed Property: concentration at 0.083 hr (ng/mL)
Give your result in ng/mL as a bare value.

Look at this compound and give its reported concentration at 0.083 hr. CC(=O)NC1C(NC(=N)N)C=C(C(=O)O)OC1C(O)C(O)CO (stereo not shown)
11000

----------
- Experiment: Intraduodenal bioavailability of zanamivir from glycerol and PBS formulations, enhancer pre-dose (Example 6)
- Measurement Parameters: male, Sprague-Dawley, rat, in vivo, 1.5 mg/animal, Plasma concentration, ID 1.5 mg/animal, 100 µL Glycerol; 0.83 hr; mean
Observed Property: concentration at 0.83 hr (ng/mL)
Respond numerically; units are ng/mL and should not be typed.

What concentration at 0.83 hr value was documented for this compound, CC(=O)NC1C(NC(=N)N)C=C(C(=O)O)OC1C(O)C(O)CO (stereo not shown) ?
57.1

----------
- Experiment: Intravenous and intraduodenal bioavailability of zanamivir from three formulations (Example 5)
- Measurement Parameters: male, Sprague-Dawley, rat, in vivo, iv, 1.5 mg/animal, Plasma concentration, IV 1.5 mg/animal, Normal Saline, Ex.5; 0.25 hr; individual rats
Observed Property: concentration at 0.25 hr (ng/mL)
Give the quantity in ng/mL, number only.

Which concentration at 0.25 hr is reported for this compound? CC(=O)NC1C(NC(=N)N)C=C(C(=O)O)OC1C(O)C(O)CO (stereo not shown)
11700

----------
- Experiment: in vivo
- Measurement Parameters: male, Sprague-Dawley, rat, in vivo, inherent absolute bioavailability
Observed Property: bioavailability

Which bioavailability is reported for this compound? CC(=O)NC1C(NC(=N)N)C=C(C(=O)O)OC1C(O)C(O)CO (stereo not shown) [Zanamivir]
< 2%

----------
- Experiment: Intravenous and intraduodenal (bolus) bioavailability of zanamivir from Capmul MCM L8 25, 50, 75 µL (Example 7)
- Measurement Parameters: male, Sprague-Dawley, rat, in vivo, iv, 1.5 mg/animal, Plasma concentration, IV 1.5 mg/animal, Normal Saline, Ex.7; 2.0 hr; mean
Observed Property: concentration at 2 hr (ng/mL)
Write the value in ng/mL as a bare number.

For the molecule shown here, CC(=O)NC1C(NC(=N)N)C=C(C(=O)O)OC1C(O)C(O)CO (stereo not shown) , give the reported concentration at 2 hr.
310

----------
- Experiment: Intravenous and intraduodenal bioavailability of zanamivir from three formulations (Example 5)
- Measurement Parameters: male, Sprague-Dawley, rat, in vivo, 1.5 mg/animal, Plasma concentration, ID 1.5 mg/animal, Glycerol 50 µL; 1.0 hr; mean
Observed Property: concentration at 1 hr (ng/mL)
Numbers only here, please. The scale is ng/mL.

Any idea what concentration at 1 hr was measured for CC(=O)NC1C(NC(=N)N)C=C(C(=O)O)OC1C(O)C(O)CO (stereo not shown) ?
415

----------
- Experiment: Intravenous and intraduodenal bioavailability of zanamivir from three formulations (Example 5)
- Measurement Parameters: male, Sprague-Dawley, rat, in vivo, iv, 1.5 mg, C0, IV 1.5 mg/animal, Normal Saline, Ex.5; extrapolated to t = 0; mean
Observed Property: C0

Quick check: C0 of CC(=O)NC1C(NC(=N)N)C=C(C(=O)O)OC1C(O)C(O)CO (stereo not shown) ?
30900 ng/mL

----------
- Experiment: Intravenous and intraduodenal (bolus) bioavailability of zanamivir from Capmul MCM L8 25, 50, 75 µL (Example 7)
- Measurement Parameters: male, Sprague-Dawley, rat, in vivo, 1.5 mg, tmax, intraduodenal bolus, 1.5 mg/animal, 75 μL Capmul MCM L8; rat 964
Observed Property: Tmax (min)
Unit min implied. Number only.

Could you share which Tmax value was measured for CC(=O)NC1C(NC(=N)N)C=C(C(=O)O)OC1C(O)C(O)CO (stereo not shown) [Zanamivir] ?
15

----------
- Experiment: Intravenous and intraduodenal (bolus) bioavailability of zanamivir from Capmul MCM L8 25, 50, 75 µL (Example 7)
- Measurement Parameters: male, Sprague-Dawley, rat, in vivo, 1.5 mg/animal, Plasma concentration, intraduodenal bolus, 75 μL Capmul MCM L8; 0.83 hr; rat 963
Observed Property: concentration at 0.83 hr
Provide the measurement as a number trailed by its unit.

Request the reported concentration at 0.83 hr associated with CC(=O)NC1C(NC(=N)N)C=C(C(=O)O)OC1C(O)C(O)CO (stereo not shown) [Zanamivir]
2940 ng/mL

----------
- Experiment: Intraduodenal bioavailability of zanamivir from glycerol and PBS formulations, enhancer pre-dose (Example 6)
- Measurement Parameters: male, Sprague-Dawley, rat, in vivo, 1.5 mg/animal, Plasma concentration, ID 1.5 mg/animal, 100 µL Glycerol; 0.25 hr; mean
- Procedure: Male Sprague-Dawley rats (Hilltop Labs), 3 animals per treatment group, 250-350 grams in weight, were fitted with a jugular vein cannula (JVC). Animals intended for intraduodenal dosing were also fitted with one or more intraduodenal cannula (IDC) and those intended for intravenous dosing were fitted with a second JVC. […] In this example, the bioavailability of Zanamivir was evaluated after intraduodenal doses in male Sprague-Dawley rats. […] Plasma levels were determined by LC-MS/MS analysis. […]
Observed Property: concentration at 0.25 hr
Note: a bare number is incomplete; add the unit.

Consider the compound CC(=O)NC1C(NC(=N)N)C=C(C(=O)O)OC1C(O)C(O)CO (stereo not shown) and give its measured concentration at 0.25 hr.
56.4 ng/mL

----------
- Experiment: Intravenous and intraduodenal bioavailability of zanamivir from three formulations (Example 5)
- Measurement Parameters: male, Sprague-Dawley, rat, in vivo, 1.5 mg/animal, Plasma concentration, ID 1.5 mg/animal, Capmul MCM L8 50 µL, Ex.5; 0.83 hr; mean
Observed Property: concentration at 0.83 hr (ng/mL)
Dear colleague, please return just the value in ng/mL, with no unit written.

Any idea what its concentration at 0.83 hr is? The compound is CC(=O)NC1C(NC(=N)N)C=C(C(=O)O)OC1C(O)C(O)CO (stereo not shown)
7230

----------
- Experiment: Intravenous and intraduodenal bioavailability of zanamivir from three formulations (Example 5)
- Measurement Parameters: male, Sprague-Dawley, rat, in vivo, 1.5 mg/animal, Plasma concentration, ID 1.5 mg/animal, Capmul MCM L8 50 µL, Ex.5; 1.0 hr; mean
Observed Property: concentration at 1 hr

What measured concentration at 1 hr goes with CC(=O)NC1C(NC(=N)N)C=C(C(=O)O)OC1C(O)C(O)CO (stereo not shown) [Zanamivir] ?
1080 ng/mL

----------
- Experiment: Intravenous and intraduodenal (bolus) bioavailability of zanamivir from Capmul MCM L8 25, 50, 75 µL (Example 7)
- Measurement Parameters: male, Sprague-Dawley, rat, in vivo, 1.5 mg/animal, Plasma concentration, intraduodenal bolus, 75 μL Capmul MCM L8; 0.5 hr; mean of 3 rats
Observed Property: concentration at 0.5 hr (ng/mL)
Respond numerically; units are ng/mL and should not be typed.

Could you share which concentration at 0.5 hr value was measured for CC(=O)NC1C(NC(=N)N)C=C(C(=O)O)OC1C(O)C(O)CO (stereo not shown) ?
1720
